# experimental system: human PDE10A2 (Homo sapiens (Human), UniProt Q9Y233)
# Sequence (Q9Y233 267-1055): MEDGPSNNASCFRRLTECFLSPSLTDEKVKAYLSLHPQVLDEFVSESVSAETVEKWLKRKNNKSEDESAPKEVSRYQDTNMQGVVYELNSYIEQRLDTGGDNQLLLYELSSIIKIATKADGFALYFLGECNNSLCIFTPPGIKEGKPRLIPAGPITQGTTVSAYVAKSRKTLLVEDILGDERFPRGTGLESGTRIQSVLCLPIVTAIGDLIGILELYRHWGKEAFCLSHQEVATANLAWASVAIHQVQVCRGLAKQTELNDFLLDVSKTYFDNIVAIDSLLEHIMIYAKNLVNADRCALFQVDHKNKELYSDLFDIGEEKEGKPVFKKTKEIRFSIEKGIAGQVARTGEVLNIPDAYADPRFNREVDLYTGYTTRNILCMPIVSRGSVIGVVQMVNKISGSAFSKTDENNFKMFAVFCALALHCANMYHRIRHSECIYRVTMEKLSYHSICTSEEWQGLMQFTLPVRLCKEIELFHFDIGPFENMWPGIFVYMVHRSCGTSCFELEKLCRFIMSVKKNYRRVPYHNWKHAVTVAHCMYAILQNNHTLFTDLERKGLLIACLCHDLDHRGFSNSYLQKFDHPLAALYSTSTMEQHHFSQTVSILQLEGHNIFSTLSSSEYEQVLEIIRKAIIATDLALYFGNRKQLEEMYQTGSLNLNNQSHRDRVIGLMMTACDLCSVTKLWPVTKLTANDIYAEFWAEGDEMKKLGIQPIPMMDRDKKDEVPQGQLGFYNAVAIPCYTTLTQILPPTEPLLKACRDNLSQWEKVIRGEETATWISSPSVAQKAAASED
# assay overview: PDE10 fluorescence polarization (IMAP FP) inhibition assay
# reported conditions: human PDE10A2 lysate, FAM-labeled cAMP 50 nM, room temperature; read-out: PDE10A Ki

compound	experimental system	Ki, pM
Cc1ccc([C@H]2C[C@@H]2COc2cc(NCc3ccc(C)nc3)c(=O)n(C)n2)nc1	human PDE10A2 (Homo sapiens (Human), UniProt Q9Y233)	121
COc1ccc([C@H]2C[C@@H]2COc2cc(NCc3c(C)noc3C)c(=O)n(C)n2)nc1	human PDE10A2 (Homo sapiens (Human), UniProt Q9Y233)	380
COc1ccc([C@H]2C[C@@H]2COc2cc(NCc3cn(C)nc3C)c(=O)n(C)n2)nc1	human PDE10A2 (Homo sapiens (Human), UniProt Q9Y233)	9
CCc1cc(CNc2cc(OC[C@H]3C[C@@H]3c3ccc(C)cn3)nn(C)c2=O)n(C)n1	human PDE10A2 (Homo sapiens (Human), UniProt Q9Y233)	27
Cc1ncc(CNc2cc(OC[C@H]3C[C@@H]3c3ccc(Cl)cn3)nn(C)c2=O)s1	human PDE10A2 (Homo sapiens (Human), UniProt Q9Y233)	64
COc1ccc([C@H]2C[C@@H]2COc2cc(NCc3cncc(C)c3)c(=O)n(C)n2)nc1	human PDE10A2 (Homo sapiens (Human), UniProt Q9Y233)	49
Cc1nc(CNc2cc(OC[C@H]3C[C@@H]3c3ccn(C)n3)nn(C)c2=O)sc1C	human PDE10A2 (Homo sapiens (Human), UniProt Q9Y233)	368
Cc1ncc(CNc2cc(OC[C@@H]3C[C@H]3c3nn(C)c4ccccc34)nn(C)c2=O)s1	human PDE10A2 (Homo sapiens (Human), UniProt Q9Y233)	77
Cc1ccc([C@H]2C[C@@H]2COc2cc(NCc3c(Cl)c(C)nn3C)c(=O)n(C)n2)nc1	human PDE10A2 (Homo sapiens (Human), UniProt Q9Y233)	476
Cc1cnc(CNc2cc(OC[C@H]3C[C@@H]3c3ccc4c(n3)CCC4)nn(C)c2=O)s1	human PDE10A2 (Homo sapiens (Human), UniProt Q9Y233)	2
Cc1ccc(CNc2cc(OC[C@H]3C[C@@H]3c3ccc4c(n3)CCC4)nn(C)c2=O)c(C)n1	human PDE10A2 (Homo sapiens (Human), UniProt Q9Y233)	2
COc1ccc([C@H]2C[C@@H]2COc2cc(NCc3ccc(C)nc3)c(=O)n(C)n2)nc1	human PDE10A2 (Homo sapiens (Human), UniProt Q9Y233)	25
COc1ccc([C@H]2C[C@@H]2COc2cc(NCc3cn(C)nn3)c(=O)n(C)n2)nc1	human PDE10A2 (Homo sapiens (Human), UniProt Q9Y233)	66
Cn1cc(CNc2cc(OC[C@H]3C[C@@H]3c3ccn(C)n3)nn(C)c2=O)cn1	human PDE10A2 (Homo sapiens (Human), UniProt Q9Y233)	478
Cc1ccc([C@H]2C[C@@H]2COc2cc(NCc3cnn(C)c3)c(=O)n(C)n2)nc1	human PDE10A2 (Homo sapiens (Human), UniProt Q9Y233)	72
Cc1ccc([C@H]2C[C@@H]2COc2cc(NCc3ncc(C)s3)c(=O)n(C)n2)nc1	human PDE10A2 (Homo sapiens (Human), UniProt Q9Y233)	7
COc1ccc([C@H]2C[C@@H]2COc2cc(NCc3cccc(C)n3)c(=O)n(C)n2)nc1	human PDE10A2 (Homo sapiens (Human), UniProt Q9Y233)	2700
COc1ccc([C@H]2C[C@@H]2COc2cc(NCc3cccnc3)c(=O)n(C)n2)nc1 [Example 135]	human PDE10A2 (Homo sapiens (Human), UniProt Q9Y233)	261
Cc1ccc(CNc2cc(OC[C@H]3C[C@@H]3c3ccc(F)cn3)nn(C)c2=O)nc1	human PDE10A2 (Homo sapiens (Human), UniProt Q9Y233)	782
COc1ccc([C@H]2C[C@@H]2COc2cc(NCc3nc(C)nn3C)c(=O)n(C)n2)nc1	human PDE10A2 (Homo sapiens (Human), UniProt Q9Y233)	2800
COc1ccc([C@H]2C[C@@H]2COc2cc(NCCc3nccs3)c(=O)n(C)n2)nc1	human PDE10A2 (Homo sapiens (Human), UniProt Q9Y233)	10300
Cn1cc(CNc2cc(OC[C@H]3C[C@@H]3c3ccc(OC(F)F)cn3)nn(C)c2=O)cn1	human PDE10A2 (Homo sapiens (Human), UniProt Q9Y233)	552
Cc1cccc([C@H]2C[C@@H]2COc2cc(NCc3ncc(C)s3)c(=O)n(C)n2)n1	human PDE10A2 (Homo sapiens (Human), UniProt Q9Y233)	37
Cc1cnn(C)c1CNc1cc(OC[C@H]2C[C@@H]2c2ccn(C)n2)nn(C)c1=O	human PDE10A2 (Homo sapiens (Human), UniProt Q9Y233)	9400
Cc1ccc([C@H]2C[C@@H]2COc2cc(NCc3cnn4ccccc34)c(=O)n(C)n2)nc1	human PDE10A2 (Homo sapiens (Human), UniProt Q9Y233)	1100
COc1ccc([C@H]2C[C@@H]2COc2cc(NCc3ncccc3C)c(=O)n(C)n2)nc1	human PDE10A2 (Homo sapiens (Human), UniProt Q9Y233)	32300
CCn1ccc(CNc2cc(OC[C@H]3C[C@@H]3c3ccc(OC)cn3)nn(C)c2=O)n1	human PDE10A2 (Homo sapiens (Human), UniProt Q9Y233)	5890
Cn1cc(CNc2cc(OC[C@H]3C[C@@H]3c3nn(C)c4ccccc34)nn(C)c2=O)cn1	human PDE10A2 (Homo sapiens (Human), UniProt Q9Y233)	1900
Cn1cc(CNc2cc(OC[C@H]3C[C@@H]3c3ccc(Cl)cn3)nn(C)c2=O)cn1	human PDE10A2 (Homo sapiens (Human), UniProt Q9Y233)	340
COc1ccc([C@H]2C[C@@H]2COc2cc(NCc3cncnc3)c(=O)n(C)n2)nc1	human PDE10A2 (Homo sapiens (Human), UniProt Q9Y233)	1700
Cn1cc(CNc2cc(OC[C@@H]3C[C@H]3c3nn(C)c4ccccc34)nn(C)c2=O)cn1	human PDE10A2 (Homo sapiens (Human), UniProt Q9Y233)	197
Cn1cc(CNc2cc(OC[C@H]3C[C@@H]3c3ccc4c(n3)CCC4)nn(C)c2=O)cn1	human PDE10A2 (Homo sapiens (Human), UniProt Q9Y233)	5
